target: Jun bZIP R261A;Fos bZIP K148A (human;human, UniProt P05412;P01100 252-315;137-200, R261A|K148A); test: ITC
Sequence (P05412 252-315 R261A, chain 1 of 2): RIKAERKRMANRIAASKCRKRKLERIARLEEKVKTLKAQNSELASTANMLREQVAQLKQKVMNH
Sequence (P01100 137-200 K148A, chain 2 of 2): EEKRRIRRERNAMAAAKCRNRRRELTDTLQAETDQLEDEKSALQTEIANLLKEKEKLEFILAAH
Parameter measured: Kd (nM)
# value in nM; strip the unit string

Q: What value of measured Kd is listed for TRE duplex 15-mer (dsDNA) DNA 1: CGCGTGACTCACCCC DNA 2: GGGGTGAGTCACGCG ?
Result: 950
